Ki listing for selected compounds.
# target.entity: LHRH receptors (Rattus norvegicus, UniProt P30969)
# Construct: Pituitary membranes containing LHRH receptors are prepared in batches from quick-frozen rat pituitaries; tissue Hilltop Labs; host or cells: rat pituitary membranes
# Sequence (P30969 whole entry): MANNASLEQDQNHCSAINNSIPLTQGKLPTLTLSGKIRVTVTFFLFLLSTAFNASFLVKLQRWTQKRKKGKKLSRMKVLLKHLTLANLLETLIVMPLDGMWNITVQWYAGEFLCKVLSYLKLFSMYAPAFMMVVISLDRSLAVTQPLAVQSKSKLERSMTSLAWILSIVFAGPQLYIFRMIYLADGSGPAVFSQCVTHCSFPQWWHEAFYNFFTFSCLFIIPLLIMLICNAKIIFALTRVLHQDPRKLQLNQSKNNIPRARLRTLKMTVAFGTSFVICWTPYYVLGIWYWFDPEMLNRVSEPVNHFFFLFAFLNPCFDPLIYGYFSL
# procedure.details: Receptor Binding (radioligand receptor binding assay)
# experimental.conditions: table 4; rat pituitary membranes, radioligand 50 pM, 2 hours at 4° C.; read-out: Receptor Binding pkI (converted)
Numbered stars: 1 amine (or outer) side, 2 acyl side, 3 side chain; on linkers, the order of the positions; unused ones are H or OH. Square brackets hold non-standard residues; d marks the D form. Peptide text beside a SMILES is read from it. * marks the point of attachment. Propanoyl(3-(4-F-phenyl)) = O=C(CCc1ccc(F)cc1)*; Phe(4-Cl) = N[C@@H](Cc1ccc(Cl)cc1)C(=O)O; 1Nal = N[C@@H](Cc1cccc2ccccc12)C(=O)O; d1Nal = N[C@H](Cc1cccc2ccccc12)C(=O)O; NMeY = CN[C@@H](Cc1ccc(O)cc1)C(=O)O; d2Thi = N[C@H](Cc1cccs1)C(=O)O; NMeL = CN[C@@H](CC(C)C)C(=O)O; Morpholide = C1CN(*)CCO1; CO = O=C([*:1])[*:2]
Kindly provide the numeric value in pM only, without the unit symbol.

Examples from the recorded data:
CC(C)C[C@H](NC(=O)[C@@H](CCCCN)NC(=O)[C@H](Cc1ccc(O)cc1)N(C)C(=O)[C@H](CO)NC(=O)[C@@H](Cc1cccs1)NC(=O)[C@H](Cc1ccc(Cl)cc1)NC(=O)N1CCOCC1)C(=O)N[C@@H](CCCNC(=N)N)C(=O)N1CCC[C@H]1C(=O)N[C@H](C)C(N)=O [Compound 230] ({Morpholide-CO}-[Phe(4-Cl)][d2Thi]S[NMeY][dK]LRP[dA]-NH2): 110
CC(C)C[C@@H](C(=O)N[C@@H](CCCNC(=N)N)C(=O)N1CCC[C@H]1C(=O)N[C@H](C)C(N)=O)N(C)C(=O)[C@@H](CCCCN)NC(=O)[C@H](Cc1ccc(O)cc1)N(C)C(=O)[C@H](CO)NC(=O)[C@@H](Cc1cccc2ccccc12)NC(=O)CCc1ccc(F)cc1 [Compound 190] ({Propanoyl(3-(4-F-phenyl))}-[d1Nal]S[NMeY][dK][NMeL]RP[dA]-NH2): 15.8

The record that follows has no Ki shown yet.
Item CC(C)C[C@H](NC(=O)[C@@H](CO)NC(=O)[C@H](Cc1ccc(O)cc1)N(C)C(=O)[C@H](CO)NC(=O)[C@H](Cc1cccc2ccccc12)NC(=O)CCc1ccc(F)cc1)C(=O)N[C@@H](CCCNC(=N)N)C(=O)N1CCC[C@H]1C(=O)N[C@H](C)C(N)=O [Compound 180] ({Propanoyl(3-(4-F-phenyl))}-[1Nal]S[NMeY][dS]LRP[dA]-NH2) has what recorded Ki?
5.5
